tgt: Gal(b1-4)GlcNAc(b1-3)[GlcNAc(b1-6)]Gal(b1-4)GlcNAc
experiment summary: glycan array binding signal (z-score within array); higher = stronger binding
measurement context: glycan notation: IUPAC condensed, linker removed
Only a selection was taken, and the strongest signals are over-represented in it overall.
Let's look at some binders and their measured glycan array binding signal (z-score).
Lab note: jot the number down without any unit.

binder	glycan array binding signal (z-score)
Epa2 (Candida glabrata) (protein) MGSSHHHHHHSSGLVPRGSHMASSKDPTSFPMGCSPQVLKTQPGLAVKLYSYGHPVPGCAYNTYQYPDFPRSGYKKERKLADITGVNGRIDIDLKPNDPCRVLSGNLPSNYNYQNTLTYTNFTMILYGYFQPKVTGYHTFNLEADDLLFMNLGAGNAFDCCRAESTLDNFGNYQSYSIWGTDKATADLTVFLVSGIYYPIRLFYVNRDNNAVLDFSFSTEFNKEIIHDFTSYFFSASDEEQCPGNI	-1.09

Which measured glycan array binding signal (z-score) value corresponds to Epa22 (Candida glabrata) (protein) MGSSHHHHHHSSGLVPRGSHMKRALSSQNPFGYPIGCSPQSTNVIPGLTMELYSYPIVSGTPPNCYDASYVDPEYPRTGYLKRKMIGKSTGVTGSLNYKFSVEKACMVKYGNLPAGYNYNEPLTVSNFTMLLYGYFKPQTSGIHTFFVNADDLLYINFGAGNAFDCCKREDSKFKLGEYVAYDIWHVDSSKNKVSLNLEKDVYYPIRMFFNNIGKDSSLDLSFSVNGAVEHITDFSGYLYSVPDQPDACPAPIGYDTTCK ?
-0.387
